Entries and their log(activity) values follow.
- System: Adenosine receptor A1 (Homo sapiens, UniProt P30542)
- Sequence (P30542 whole entry): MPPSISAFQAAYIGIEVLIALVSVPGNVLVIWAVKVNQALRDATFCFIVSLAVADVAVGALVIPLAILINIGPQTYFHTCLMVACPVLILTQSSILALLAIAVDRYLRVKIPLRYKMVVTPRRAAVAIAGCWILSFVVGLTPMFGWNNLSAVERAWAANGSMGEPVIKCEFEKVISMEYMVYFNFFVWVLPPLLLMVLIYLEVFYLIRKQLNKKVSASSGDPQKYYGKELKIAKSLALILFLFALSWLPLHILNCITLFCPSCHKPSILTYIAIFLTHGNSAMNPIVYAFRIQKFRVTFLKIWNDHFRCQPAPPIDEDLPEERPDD
- Procedure summary: Agonist activity at human A1AR expressed in FlpIn-CHO cells assessed as intracellular calcium mobilization by measuring agonist transduction coefficient by Fluo-4 dye-based fluorescence assay
- Assay type: cell-based
Note: the reply should be a number with no unit written.

Known log(activity) results, listed for orientation:
{"columns": ["Mol smiles", "Endpoint name", "Experimental value"],
 "data": [
  ["Nc1sc(-c2ccc(C(=O)NCCCCCCNc3nc(Cl)nc4c3ncn4[C@@H]3O[C@H](CO)[C@@H](O)[C@H]3O)cc2)c(-c2cccc(C(F)(F)F)c2)c1C(=O)c1ccccc1", "log(activity)", 6.32],
  ["O=C(NCCCCCCNc1ncnc2c1ncn2[C@@H]1O[C@H](CO)[C@@H](O)[C@H]1O)c1cccc(-c2cccs2)c1", "log(activity)", 7.38],
  ["O=C(NCCCCCCNc1ncnc2c1ncn2[C@@H]1O[C@H](CO)[C@@H](O)[C@H]1O)c1ccc(-c2scc(C(=O)c3ccccc3)c2-c2cccc(C(F)(F)F)c2)cc1", "log(activity)", 5.74],
  ["O=C(NCCCCCCNc1ncnc2c1ncn2[C@@H]1O[C@H](CO)[C@@H](O)[C@H]1O)c1cccc(-c2cc(C(=O)c3ccccc3)cs2)c1", "log(activity)", 6.91],
  ["CCNC(=O)[C@H]1O[C@@H](n2cnc3c(NCCCCCCNC(=O)c4ccc(-c5sc(N)c(C(=O)c6ccccc6)c5-c5cccc(C(F)(F)F)c5)cc4)ncnc32)[C@H](O)[C@@H]1O", "log(activity)", 6.33]
]}

// next item, log(activity) requested
Observed log(activity) on Adenosine receptor A1 (Homo sapiens, UniProt P30542) for `Nc1cc(-c2cccc(C(F)(F)F)c2)c(-c2ccc(C(=O)NCCCCCCNc3ncnc4c3ncn4[C@@H]3O[C@H](CO)[C@@H](O)[C@H]3O)cc2)s1` , please. 6.86
